Every entry's value here was drawn from the supplement of paper PMC10567573.

Measured protein stability index, listed per entry.
test: protein stability index of a GFP-peptide fusion (GPS, HEK-293T) (PSI 1-6); higher = more stable; conditions: treatment: DMSO; c terminus: a fixed tail appended;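 note: 24-mer peptide tiles fused after GFP, lentivirally expressed, FACS-sorted into six equal bins by GFP/DsRed ratio, decoded by Illumina sequencing, PSI is the read-weighted mean bin number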
Provide a numeric answer; units are not to be included.

Would you please look over these solved cases?
WKDIIHNPQALSPQFTGILQLLQS [INTS3] = 2.11
ACLVSCFQQLMVETCSCGYYLHPL [SCNN1D] = 2.91
SRQGSAEALRALQEGLWLDRGTRV [PKD2L1] = 3.6

Prompt: Quick one: protein stability index of HSLYRRTGASFQKAQQEFAAGVFS [SCAMP3] ?
Response: 2.81

Prompt: State the recorded protein stability index for this entry: GGSAVCASRVKLQHLPAQEQWDRL [PLEKHN1]
Response: 3.08

Prompt: Return reported protein stability index; argument: ESEGSESSGRSCRNERSIQEKLQV [SMG5]
Response: 4.82

Prompt: Data request, read-out protein stability index, for PGKLFIGGLNTETNEKALEAVFGK [RBMX]
Response: 3.54
